Numbers sourced from patent US20060069132A1.

# Test system: blackgrass
# Assay method text: Test B postemergence herbicide test
# Format: in vivo, Alopecurus myosuroides
# Test parameters: Postemergence, 500 g ai/ha; visual rating after 13 to 15 days, scale 0 (no effect) to 100 (complete control)
# Description: At the same time, plants selected from these crop and weed species and also blackgrass (Alopecurus myosuroides Huds.), wheat (Triticum aestivum L.) and wild oat (Avena fatua L.) were treated with postemergence applications of test chemicals formulated in the same manner. […] Treated plants and controls were maintained in a greenhouse for 13 to 15 days, after which time all species were compared to controls and visually evaluated. […]

Smiles structure	Plant response rating, Blackgrass
CCCn1nc(C(C)(C)C)cc1C(=O)Nc1cccc(C(C)=NO)c1	20
C=Cn1nc(C(C)(C)C)cc1C(=O)Nc1cccc(C(=O)N(CC)CC)c1	20
CCn1nc(C(C)(C)C)cc1C(=O)Nc1cccc(C(=O)OCCF)c1	10
CCn1nc(C(C)(C)C)cc1C(=O)Nc1cc(C(=O)OC(C)(C)C)ccc1F	0
CCNC(=O)c1cccc(NC(=O)c2cc(C(C)(C)C)nn2CC(F)(F)F)c1	50
C=CCn1nc(C(C)(C)C)cc1C(=O)Nc1cccc(C(=O)NCC)c1	10
